Answer each item with its documented IC50.
Target: human full length PIK3KA H1047R mutant (p110α/p85α complex) (Homo sapiens, UniProt P42336, H1047R)
Construct: Recombinant, catalytically active human full length PIK3KA Wild-type and H1047R mutant were purchased; 6xHis (N); purchased EMD Millipore Sigma 14-792M
Sequence (P42336 whole entry H1047R): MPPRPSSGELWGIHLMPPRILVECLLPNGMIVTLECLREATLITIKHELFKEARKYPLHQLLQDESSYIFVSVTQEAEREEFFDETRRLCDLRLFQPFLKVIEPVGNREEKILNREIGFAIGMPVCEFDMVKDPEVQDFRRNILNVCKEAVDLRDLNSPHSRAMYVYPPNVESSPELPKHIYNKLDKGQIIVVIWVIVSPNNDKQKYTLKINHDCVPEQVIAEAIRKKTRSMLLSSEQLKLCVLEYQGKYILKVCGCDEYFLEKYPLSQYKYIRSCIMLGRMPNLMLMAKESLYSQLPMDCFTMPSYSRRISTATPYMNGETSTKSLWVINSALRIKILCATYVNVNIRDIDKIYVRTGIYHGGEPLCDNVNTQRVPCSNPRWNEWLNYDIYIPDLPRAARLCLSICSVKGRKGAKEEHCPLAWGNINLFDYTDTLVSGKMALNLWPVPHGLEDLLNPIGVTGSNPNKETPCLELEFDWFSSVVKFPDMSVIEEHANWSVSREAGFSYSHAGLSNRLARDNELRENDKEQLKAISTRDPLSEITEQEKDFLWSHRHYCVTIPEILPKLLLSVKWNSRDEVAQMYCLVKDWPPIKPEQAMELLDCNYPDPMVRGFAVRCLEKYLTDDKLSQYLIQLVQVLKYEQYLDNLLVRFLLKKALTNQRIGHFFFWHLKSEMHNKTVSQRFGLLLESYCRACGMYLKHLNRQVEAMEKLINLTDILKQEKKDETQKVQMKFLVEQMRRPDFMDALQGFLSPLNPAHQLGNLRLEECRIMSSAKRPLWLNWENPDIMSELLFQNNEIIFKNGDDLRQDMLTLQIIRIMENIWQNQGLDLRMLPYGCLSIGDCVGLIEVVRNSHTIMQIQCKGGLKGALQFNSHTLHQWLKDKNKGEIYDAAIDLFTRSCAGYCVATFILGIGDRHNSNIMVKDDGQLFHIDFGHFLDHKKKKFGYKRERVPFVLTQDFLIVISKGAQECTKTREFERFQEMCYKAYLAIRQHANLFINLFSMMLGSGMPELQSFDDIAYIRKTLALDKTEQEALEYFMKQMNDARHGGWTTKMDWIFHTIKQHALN
Sequence (P27986 whole entry partner): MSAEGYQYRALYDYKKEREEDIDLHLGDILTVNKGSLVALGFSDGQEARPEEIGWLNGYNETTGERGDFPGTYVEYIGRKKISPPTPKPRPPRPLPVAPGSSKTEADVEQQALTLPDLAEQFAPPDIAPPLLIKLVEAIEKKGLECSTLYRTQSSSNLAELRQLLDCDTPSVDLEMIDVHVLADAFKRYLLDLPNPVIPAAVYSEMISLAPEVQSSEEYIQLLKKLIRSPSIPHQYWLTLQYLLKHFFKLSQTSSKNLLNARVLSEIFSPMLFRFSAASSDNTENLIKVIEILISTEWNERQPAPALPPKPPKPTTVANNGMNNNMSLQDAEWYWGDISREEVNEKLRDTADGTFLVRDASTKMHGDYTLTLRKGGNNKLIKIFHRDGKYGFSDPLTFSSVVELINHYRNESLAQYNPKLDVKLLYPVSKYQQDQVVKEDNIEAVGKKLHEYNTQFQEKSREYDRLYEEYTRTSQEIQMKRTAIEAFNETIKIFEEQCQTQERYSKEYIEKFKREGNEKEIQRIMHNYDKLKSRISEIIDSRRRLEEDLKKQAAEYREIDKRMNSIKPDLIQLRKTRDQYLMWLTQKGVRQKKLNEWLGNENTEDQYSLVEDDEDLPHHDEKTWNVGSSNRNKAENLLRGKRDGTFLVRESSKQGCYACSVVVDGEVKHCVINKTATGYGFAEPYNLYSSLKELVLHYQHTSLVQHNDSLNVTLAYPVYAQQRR
Assay: PI3K-Alpha Kinase (PIK3CA) biochemical activity, H1047R mutant (ADP-Glo)
Conditions: Soy PI lipid substrate, 20 uM ATP
Protocol: PI3K-Alpha Kinase (PIK3CA) Activity, Wild-Type and H1047R Mutant and Determining IC50 Values for Inhibitors Recombinant, catalytically active human full length PIK3KA Wild-type and H1047R mutant were purchased as 1:1 complex of N-terminal 6×his tagged p110α (catalytic) and untagged p85α, (regulatory subunit) from EMD Millipore Sigma (cat. no. 14-602M and 14-792M, respectively). […] Data was analyzed using a 4-parameter nonlinear logistic equation (four-parameter logistic concentration-response curve): […]

In: May I ask what IC50 has been recorded for COC(=O)c1ccccc1NC(C)c1cc(C)cc2c(=O)cc(-c3c[nH]c(=O)cn3)oc12 (single isomer, unassigned; isomer 2) [Example 56] ?
Out: 1000 to 5000 nM

In: Consider the compound shown here: Cc1c(-c2ccccn2)oc2c(C(C)Nc3ccc(Cl)nc3C(=O)O)cc(C(F)(F)F)cc2c1=O (single isomer, unassigned; isomer 1) [Example 61] What is its recorded IC50?
Out: < 500 nM

In: Using the record for Cc1cc(C(C)Nc2ccccc2C(=O)O)c2oc(-c3cnn(-c4ccccc4C#N)c3)cc(=O)c2c1 (single isomer, unassigned) [Example 107] , report its IC50.
Out: < 500 nM

In: Param item = Cc1cc(C(C)Nc2ccccc2C(=O)O)c2oc(-c3ccc(S(C)(=O)=O)nc3)cc(=O)c2c1 (single isomer, unassigned; isomer 2) [Example 40] ; retrieve measured IC50.
Out: < 500 nM

In: // query IC50 value for entry Cc1cc(C(C)Nc2ccccc2C(=O)O)c2oc(-n3nccn3)cc(=O)c2c1 (single isomer, unassigned) [Example 57]
Out: < 500 nM

In: Can you share its IC50? I mean this compound: Cc1cc(C(C)Nc2ccccc2C(=O)O)c2oc(-c3cccnc3)cc(=O)c2c1 (single isomer, unassigned; isomer 2) [Example 14]
Out: < 500 nM

In: Which IC50 reading was recorded for the compound Cc1cc(C(C)Nc2cccc(F)c2C(=O)O)c2oc(-c3cnn(-c4ccc(C#N)cc4)c3)cc(=O)c2c1 (single isomer, unassigned; isomer 2) [Example 113] ?
Out: < 500 nM

In: What measured IC50 goes with COc1cccc(-n2cc(-c3oc4c(C(C)Nc5ccccc5C(=O)O)cc(C)cc4c(=O)c3C)cn2)c1 (single isomer, unassigned) [Example 66] ?
Out: < 500 nM

In: # get_value(readout='IC50', item= Cc1cc(C(C)Nc2ccccc2C(=O)O)c2oc(-c3cnn(-c4cccnc4)c3)cc(=O)c2c1 (stereo not drawn) [Example 48] )
Out: < 500 nM

In: What value of IC50 has been reported for the following compound? Cc1cc(C(C)Nc2ccccc2C(=O)O)c2oc(-c3cccc(C(F)F)n3)cc(=O)c2c1 (single isomer, unassigned; isomer 2) [Example 71]
Out: < 500 nM

In: Tell me the measured IC50 of Cc1cc(C(C)Nc2ccccc2C(=O)O)c2oc(-c3cnn(-c4ccc(C#N)cc4)c3)c(C)c(=O)c2c1 (single isomer, unassigned) [Example 73] , please.
Out: < 500 nM

In: Param item = COc1ncc(-n2cc(-c3oc4c(C(C)Nc5ccccc5C(=O)O)cc(C)cc4c(=O)c3C)cn2)cn1 (single isomer, unassigned) [Example 72] ; retrieve measured IC50.
Out: < 500 nM

In: What does the record list as IC50 for Cc1cc(C(C)Nc2ccccc2C(=O)O)c2oc(-c3cnn(-c4cccc(C#N)c4)c3)cc(=O)c2c1 (single isomer, unassigned) [Example 54] ?
Out: < 500 nM

In: Sample Cc1cc(C(C)Nc2ccccc2C(=O)O)c2oc(-c3cnc(-c4ccccc4)s3)c(C)c(=O)c2c1 (single isomer, unassigned) [Example 126] — what was its IC50?
Out: < 500 nM

In: If you can, please state the reported IC50 value of COc1cccc(-n2cc(-c3cc(=O)c4cc(C)cc(C(C)Nc5ccccc5C(=O)O)c4o3)nn2)c1 (single isomer, unassigned; isomer 2) [Example 98] .
Out: < 500 nM

In: Reported IC50, compound Cc1cc(C(C)Nc2ccccc2C(=O)O)c2oc(-c3cnn(-c4cccc(C#N)c4)c3)c(C)c(=O)c2c1 (single isomer, unassigned) [Example 74] : ____
Out: < 500 nM

In: Form field: reported IC50 of Cc1cc(C(C)Nc2ccccc2C(=O)O)c2oc(-c3cncc(F)c3)c(C)c(=O)c2c1 (single isomer, unassigned; isomer 1) [Example 45]
Out: < 500 nM

In: # lookup: IC50 of Cc1cc(C(C)Nc2ccc(Cl)nc2C(=O)O)c2oc(-c3ccccn3)c(C)c(=O)c2c1 (single isomer, unassigned; isomer 1) [Example 60]
Out: < 500 nM

In: Could you tell me which IC50 is on file for Cc1cc(C(C)Nc2cccnc2C(=O)O)c2oc(-c3cncc(F)c3)c(C)c(=O)c2c1 (single isomer, unassigned; isomer 1) [Example 131] ?
Out: 1000 to 5000 nM

In: Quick check: IC50 of Cc1cc(C(C)Nc2ccccc2C(=O)O)c2oc(-c3cnn(-c4ccc(C(F)(F)F)cc4)c3)cc(=O)c2c1 (single isomer, unassigned) [Example 87] ?
Out: < 500 nM

In: If you can, please state the reported IC50 value of COc1ncc(-n2cc(-c3cc(=O)c4cc(C)cc(C(C)Nc5ccccc5C(=O)O)c4o3)cn2)cn1 (single isomer, unassigned) [Example 105] .
Out: 500 to 1000 nM

In: Can you look up the measured IC50 of Cc1cc(C(C)Nc2ccccc2C(=O)O)c2oc(-c3cccc(C(F)F)n3)c(C)c(=O)c2c1 (single isomer, unassigned) [Example 77] for me?
Out: < 500 nM

In: Item Cc1cc(C(C)Nc2ccccc2C(=O)O)c2oc(-c3cnn(-c4ccc(C#N)cc4F)c3)cc(=O)c2c1 (single isomer, unassigned) [Example 104] has what recorded IC50?
Out: 500 to 1000 nM

In: Fill in the blank: the reported IC50 of Cc1cc(C(C)Nc2ccccc2C(=O)O)c2oc(-c3cnc(OC(C)C)nc3)cc(=O)c2c1 (stereo not drawn) [Example 6] is ____.
Out: < 500 nM
